- RUN DESCRIPTION: Selectivity index, ratio of TC50 for human HEK293T cells to IC90 for CCR5-tropic HIV1 NL-AD87 infected in HEK293T cells
- Assay type: toxicity, cell-based, HEK-293T
- STUDY CONDITIONS: read-out: Selectivity Index
QUANTITY MEASURED: selectivity ratio
Form: value (number only, do not type unit).

Using the record for COc1cc2c(c(-c3cc(O)c4c(O)c5oc6c(C(=O)O)cc(C)cc6c(=O)c5c(OC)c4c3OC)c1)CC(C)OC2=O (stereo unspecified) , report its selectivity ratio.
7
